Test system: Rhipicephalus (Boophilus) microplus
assay explanation: In vitro injection test with Rhipicephalus (Boophilus) microplus (BOOPMI Inj)
assay conditions: 168 h, dose 0.8 μg/animal injected, laid fertile eggs after 7 days, read-out: acaricidal activity
measurement name: pest or weed control at 0.0008 mg (%)
Write down the numeric answer in % and omit the unit.

Recorded pest or weed control at 0.0008 mg, per entry:
- CN(C(=O)c1ccc(C(F)(F)F)nc1)c1cccc(C(=O)Nc2c(I)cc(C(F)(C(F)(F)F)C(F)(F)F)cc2C(F)(F)F)c1F: 100
- CN(C(=O)c1ccc(F)cc1F)c1cccc(C(=O)Nc2c(I)cc(C(F)(C(F)(F)F)C(F)(F)F)cc2C(F)(F)F)c1F: 100
- CN(C(=O)c1ccc(C(F)(F)F)nc1)c1cccc(C(=O)Nc2c(I)cc(C(F)(C(F)(F)F)C(F)(F)F)cc2OC(F)(F)F)c1F: 100
- CC(C)c1ccc(C(=O)N(C)c2cccc(C(=O)Nc3c(I)cc(C(F)(C(F)(F)F)C(F)(F)F)cc3C(F)(F)F)c2F)cc1: 100
- O=C(Nc1cccc(C(=O)Nc2c(I)cc(C(F)(C(F)(F)F)C(F)(F)C(F)(F)F)cc2C(F)(F)F)c1F)c1ccc(F)cc1 (stereo not shown): 100

Entry CN(C(=O)c1cnc(C(F)(F)F)nc1)c1cccc(C(=O)Nc2c(I)cc(C(F)(C(F)(F)F)C(F)(F)F)cc2C(F)(F)F)c1F ; assay system Rhipicephalus (Boophilus) microplus; pest or weed control at 0.0008 mg recorded at 100

Entry O=C(Nc1cccc(C(=O)Nc2c(Br)cc(C(F)(C(F)(F)F)C(F)(F)C(F)(F)F)cc2C(F)(F)F)c1F)c1ccc(F)cc1 (stereo not shown) ; assay system Rhipicephalus (Boophilus) microplus; pest or weed control at 0.0008 mg recorded at 100

Entry CN(C(=O)c1ccc(F)cc1)c1cccc(C(=O)Nc2c(Br)cc(C(F)(C(F)(F)F)C(F)(F)F)cc2C(F)(F)F)c1F ; assay system Rhipicephalus (Boophilus) microplus; pest or weed control at 0.0008 mg recorded at 100

Entry CN(C(=O)c1ccc(F)nc1)c1cccc(C(=O)Nc2c(I)cc(C(F)(C(F)(F)F)C(F)(F)C(F)(F)F)cc2C(F)(F)F)c1F (stereo not shown) ; assay system Rhipicephalus (Boophilus) microplus; pest or weed control at 0.0008 mg recorded at 100

Entry COc1ccc(C(=O)N(C)c2cccc(C(=O)Nc3c(I)cc(C(F)(C(F)(F)F)C(F)(F)F)cc3C(F)(F)F)c2F)cc1 ; assay system Rhipicephalus (Boophilus) microplus; pest or weed control at 0.0008 mg recorded at 100

Entry CN(C(=O)c1ccc(F)cc1)c1cccc(C(=O)Nc2c(Br)cc(C(F)(C(F)(F)F)C(F)(F)C(F)(F)F)cc2C(F)(F)F)c1F (stereo not shown) ; assay system Rhipicephalus (Boophilus) microplus; pest or weed control at 0.0008 mg recorded at 100

Entry O=C(Nc1cccc(C(=O)Nc2c(I)cc(C(F)(C(F)(F)F)C(F)(F)F)cc2C(F)(F)F)c1F)c1ccc(C(F)(F)F)nc1C(F)(F)F ; assay system Rhipicephalus (Boophilus) microplus; pest or weed control at 0.0008 mg recorded at 100

Entry CN(C(=O)c1ccc(F)cc1)c1cccc(C(=O)Nc2c(Br)cc(C(F)(C(F)(F)F)C(F)(F)F)cc2OC(F)(F)F)c1F ; assay system Rhipicephalus (Boophilus) microplus; pest or weed control at 0.0008 mg recorded at 100
